Endpoint summary: pKi, system: Sodium-dependent serotonin transporter (Rattus norvegicus), multiple sources combined.
Numbers only, as −log10 of the molar value.

Look over these answered cases.
INSERT INTO assay_data (compound, recorded_measurement) VALUES
  ('Cc1ccc2c3c(ccc2n1)OCC(CN(C)CCCCc1c[nH]c2ccc(C#N)cc12)O3 (centres unmarked)', 9.62),
  ('Cc1ccc2c3c(ccc2n1)OCC(CNCCc1c[nH]c2ccc(F)cc12)O3 (centres unmarked)', 7.33);

Below are some compounds; for each one, tell me its pKi.
1. Cc1ccc2c3c(ccc2n1)OCC(CNCCCc1c[nH]c2ccccc12)O3 (centres unmarked)
2. CN(C)CCC(Nc1ccccc1)c1ccc(OCCCN2CCCCC2)cc1 (centres unmarked)
3. CNCc1cc(C#CCCN2CCOCC2)ccc1Sc1ccc(Cl)cc1
4. CNCc1cc(C(=O)N2CCN(C3CC3)CC2)ccc1Oc1cccc(Cl)c1F
5. CC(C)N1CCN(CCC#Cc2ccc(C(CCN(C)C)Oc3ccccc3)cc2)CC1 (centres unmarked)
6. Cc1ccc2c3c(ccc2n1)OC[C@H](CN1CCN(c2cccc(C(F)(F)F)c2)CC1)O3
7. CNCc1cc(C#CCCNC2CC2)ccc1Oc1ccc(Cl)c(Cl)c1
8. CNCc1cc(N2CCNCC2=O)ccc1Oc1ccc(SC)cc1

8.45
7.82
9.00
6.89
8.22
7.67
8.74
9.40

---

Let's look at some pKi data for Sodium-dependent serotonin transporter (Rattus norvegicus, UniProt P31652) that I collected from the literature.
Numbers only, as −log10 of the molar value.

Example entries and their recorded answers appear below.
INSERT INTO assay_data (compound, experimental_readout, recorded_measurement) VALUES
  ('CN(C)CCC(Oc1ccccc1)c1cccc(OCCCN2CCCCC2)c1 (stereo not shown)', 'pKi', 7.80),
  ('CNCc1cc(N2CCCN(C3CC3)CC2)ccc1Oc1ccc(SC)cc1', 'pKi', 8.22),
  ('Cc1ccc2c3c(ccc2n1)OC[C@H](CNCCCc1coc2ccccc12)O3', 'pKi', 8.18),
  ('Cc1ccc2c3c(ccc2n1)OCC(CN1CC(Cc2c[nH]c4ccc(F)cc24)C1)O3 (stereo not shown)', 'pKi', 8.89),
  ('CCOc1cccc2c1O[C@@H](CN[C@H]1CC[C@@H](c3c[nH]c4ccc(F)cc34)C1)CO2 (mixture of isomers)', 'pKi', 9.22),
  ('CNCc1cc(C#CCCN2CCN(C(C)C)C(=O)C2)ccc1Oc1ccc(SC)cc1', 'pKi', 9.00);

Need pKi for each of these compounds.
1. CN(C)CCC(Oc1ccc(Cl)c(Cl)c1)c1ccc(OCCCN2CCCCC2)cc1 (stereo not shown)
2. CNCc1cc(N2CCN(c3ccncc3)CC2)ccc1Oc1ccc(SC)cc1
3. Fc1ccc2[nH]cc(CCCNC[C@H]3COc4ccc5ncccc5c4O3)c2c1
4. CN(C)CCC(Oc1ccc(F)cc1)c1ccc(OCCCN2CCCCC2)cc1 (stereo not shown)

8.22
9.15
9.00
8.89

Need pKi for each of these compounds.
1. CNCc1cc(N2CCN(C3CC3)CC2)ccc1Oc1ccc(SC)cc1
2. Cc1nc2ccc3c(c2o1)O[C@@H](CNCCCc1c[nH]c2ccc(F)cc12)CO3

1. 9.00
2. 8.73

State, in one line, measured pKi of `CNCc1cc(C(=O)N2CC[C@H](N(C)C)C2)ccc1Oc1ccc(SC)cc1`
9.05

---

Several publications report pKi on Sodium-dependent serotonin transporter (Rattus norvegicus, UniProt P31652); those values are gathered here.
Give bare numbers, as −log10 of the molar value.

INSERT INTO measurements (compound, recorded_measurement) VALUES
  ('OC(CCN1CCN(c2ccc3ccccc3n2)CC1)c1csc2ccccc12 (stereo not shown)', 8.19),
  ('CN(C)CCC(Oc1cccnc1)c1ccc(OCCCN2CCCCC2)cc1 (stereo not shown)', 8.05),
  ('Cc1ccc2c3c(ccc2n1)OCC(CNCCCc1cn(C)c2ccc(F)cc12)O3 (stereo not shown)', 7.89);

State its pKi for this compound: Cc1ccc2c3c(ccc2n1)OCC(CN1CCCC(Cc2c[nH]c4cc(F)ccc24)C1)O3 (stereo not shown)
7.82

---

pKi: −log10 of the molar value.
Multiple publications report pKi for Sodium-dependent serotonin transporter (Rattus norvegicus, UniProt P31652); what follows is a combined list.
We use 8 as the dividing line for pKi: on or above the line is Y, below is N.

Sample answers from the record:
INSERT INTO measurements (molecule, system_name, classification) VALUES
  ('CNCc1cc(C#CCCN2CCN(C3CC3)CC2)ccc1Oc1ccc(SC)cc1', 'Sodium-dependent serotonin transporter (Rattus norvegicus, UniProt P31652)', 'Y'),
  ('CN(CCCc1c[nH]c2ccc(F)cc12)CC1COc2ccc3ncccc3c2O1 (stereo not shown)', 'Sodium-dependent serotonin transporter (Rattus norvegicus, UniProt P31652)', 'Y'),
  ('Cc1ccc2c3c(ccc2n1)OC[C@H](CN1CCN(c2ccc(Cl)cc2)CC1)O3', 'Sodium-dependent serotonin transporter (Rattus norvegicus, UniProt P31652)', 'N'),
  ('CN(C)CCC(Oc1ccc(C(F)(F)F)cc1)c1ccc(C#CCCN2CCSCC2)cc1 (stereo not shown)', 'Sodium-dependent serotonin transporter (Rattus norvegicus, UniProt P31652)', 'N'),
  ('Cc1ccc2c3c(ccc2n1)OC[C@H](CN1CCNCC1)O3', 'Sodium-dependent serotonin transporter (Rattus norvegicus, UniProt P31652)', 'N');

Shifting focus to the molecule that follows.
Quick check: does Cc1ccc2c3c(ccc2n1)OCC(CNCCCc1c[nH]c2c(F)cccc12)O3 (stereo not shown) have pKi greater than or equal to 8?
Y

---

Note to self: these compounds have Ki reported for Sodium-dependent serotonin transporter (Rattus norvegicus, UniProt P31652) in various publications.
One number for each entry, in nM.

Each compound below has a reported value. Please supply its Ki.
1. CSc1ccc(Oc2ccc(CN3CCN(C(C)C)CC3)cc2CNC(C)C)cc1
2. Oc1ccc2scc(C(O)CCN3CCN(c4cccc5c4OCCO5)CC3)c2c1 (stereo not shown)

1: 7; 2: 6.2

Hello, I would appreciate it if you could give Ki for each entry below.
1. CCN(CCCc1c[nH]c2ccc(F)cc12)CC1COc2ccc3nc(C)ccc3c2O1 (stereo not shown)
2. CNCc1cc(N2CCCN(C(C)C)CC2)ccc1Oc1ccc(SC)cc1
3. CN(C)CCC(Oc1ccc(C#CCCN2CCOCC2)cc1)c1ccccc1 (stereo not shown)

[0.6, 1, 108]

Please state, for each entry, its recorded Ki.
1. Cc1ccc2c3c(ccc2n1)OCC(CNCCCc1cn(C)c2c(F)cc(F)cc12)O3 (stereo not shown)
2. COc1cccc2c1OC(CNC1CCC(c3c[nH]c4ccc(F)cc34)C1)CO2 (stereo not shown)
3. CNCc1cc(C(=O)N2CCC(N3CCOCC3)CC2)ccc1Oc1ccc(SC)cc1

[5.9, 1.07, 3]

Need Ki for each of these compounds.
1. CN(C)CCC(Cc1ccccc1)c1ccc(OCCCN2CCCCC2)cc1 (stereo not shown)
2. CNCc1cc(C(=O)NCCCN(C)C)ccc1Oc1cccc(Cl)c1
3. CN(C)CCC(Oc1ccc(C(F)(F)F)cc1)c1ccc(CCCCN2CCCCC2)cc1 (stereo not shown)
4. Cc1ccc2c3c(ccc2n1)OC[C@H](CN(C)CCCn1ccc2c(F)cccc21)O3
5. CCC(CC)N1CCN(C(=O)c2ccc(C(CCN(C)C)Oc3ccc(C(F)(F)F)cc3)cc2)CC1 (stereo not shown)
6. Cc1ccc2c3c(ccc2n1)OC[C@H](CN1CCN(c2ccc(C)c(C)c2)CC1)O3
7. Cc1ccc2c3c(ccc2n1)OCC(CN(C)CCCCn1ccc2ccc(F)cc21)O3 (stereo not shown)
8. CN(C)CCC(Oc1ccc([N+](=O)[O-])cc1)c1ccc(OCCCN2CCCCC2)cc1 (stereo not shown)

1
0.8
3
4.2
102
85.5
1
4

# batch: return Ki for each of the 3 compounds below
1. Cc1ccc2c3c(ccc2n1)OC[C@H](CNCCCc1csc2ccc(F)cc12)O3
2. CC(C)N1CCC(Oc2ccc(OC(CCN(C)C)c3ccc(C(F)(F)F)cc3)cc2)CC1 (stereo not shown)
3. Cc1ccc2c3c(ccc2n1)OC[C@H](CN1CCN(c2ccc(Cl)c(Cl)c2)CC1)O3

1: 2.35; 2: 65; 3: 76
